Biological target: T1, BCMA on cells (293T cells transfected with BCMA; H929, MM.1S and U266 cell lines expressing BCMA) (human, UniProt Q02223 1-184)
T1 construct: H929, MM.1S and U266 carry the native protein; also called B-cell Maturation Antigen; TNFRSF17
T1 sequence: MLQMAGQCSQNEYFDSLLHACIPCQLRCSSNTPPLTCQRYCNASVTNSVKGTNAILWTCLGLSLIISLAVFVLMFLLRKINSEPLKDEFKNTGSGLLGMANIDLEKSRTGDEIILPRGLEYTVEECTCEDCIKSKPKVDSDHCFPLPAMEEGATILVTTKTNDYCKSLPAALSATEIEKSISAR
Experiment: flow cytometry, H929 cells; further: test concentration or dose not given here
Mean fluorescent intensity less than 500 is T; Mean fluorescent intensity greater than or equal to 500 is F.

Use these answered entries as a reference point.
SCT-Aa06(h/h) (antibody, V domains shown, Full IgG format, chimeric: human IgG1 heavy chain constant region, human kappa light chain constant region) VH: EVQLQQSGPELVKPGNSVKISCKASGYSFTGYFMNWVMQSHGKSLEWIGRINPYNGDTFYNQKFKGKATLTVDKSSSTAHMELRSLTSEDSAVYYCARLDYTNYNSYPMDYWGQGTSVTVSS VL: DIQMTHTTSSLSASLGDRVTISCSASQGISNYLNWYLQKPDGTVKLLIYYTSNLHSGVPSRFSGSGSGTDFSLTISNLQPEDIATYYCQQYSKFPWTFGGGTKLEIK = F
SCT-Aa15(h/h) (antibody, V domains shown, Full IgG format, chimeric: human IgG1 heavy chain constant region, human kappa light chain constant region) VH: QVQLQQSDAELVKPGPSVKISCKVSGSTFTDHTVHWMKQRPEQGLEWIGYVYPRDGSTRYNEKFKGKATLTADKSSSTAYMQLNSLTSEDSAVYFCARWDYEGFDYWGQGTTLTVSS VL: DIVMTQSPATLSVTPGDRVSLSCRASQNISDYLHWYQQKSHESPRLLIKYASQSISGIPSRFSGSGSGSDFTLSINSVEPEDVGVYYCQNGHSFPPTFGSGTKLKIK = T
SCT-Aa09(m/m) (antibody, V domains shown, Full IgG format: mouse IgG1 heavy chain constant region, mouse kappa light chain constant region) VH: QVQLQQSDAELVKPGASVKISCKVSGYTFTDHTIHWMKQRPEQGLEWIGYFYPRDDNTKYNEKFKGKATLTADRSSSTAYMQLNSLTSEDSAVYFCARWDYEGFDYWGQGTTLTVSS VL: DIVMTQSPATLSVTPGDRVSLSCRASQSIRDYLHWYQQKSHESPRLLIKYASQSISGIPSRFSGSGSGSDFTLSINSVEPEDVGVYYCQNGHSFPPTFGSGTKLEIK = T

As a next step, examine the binder that follows.
Q: Bench note: check whether SCT-Aa04(m/m) (antibody, V domains shown, Full IgG format: mouse IgG1 heavy chain constant region, mouse kappa light chain constant region) VH: EVKLLQSGGGLVQPGGSLKLSCAASGIDFSRYWMSWVRRAPGKGLEWIGEINPDSSTINYAPSLKDKFIISRDNAKNTLYLQMSKVRSEDTALYYCASFYYDYDRGAAMDYWGQGTSVTVSS VL: DIVMTQSQKFMSTSVGDRVSVTCKASQNVGTNVAWYQQKPGQSPKALIYSASYRYSGVPDRFTGSGSGTDFTLTISNVQSEDLAEYFCQQYNSYPYTFGGGTKLEIK shows Mean fluorescent intensity below 500
Ans: F
